Biological target: activated MMP-8 enzyme (Homo sapiens, UniProt P22894)
Sequence (P22894 101-467): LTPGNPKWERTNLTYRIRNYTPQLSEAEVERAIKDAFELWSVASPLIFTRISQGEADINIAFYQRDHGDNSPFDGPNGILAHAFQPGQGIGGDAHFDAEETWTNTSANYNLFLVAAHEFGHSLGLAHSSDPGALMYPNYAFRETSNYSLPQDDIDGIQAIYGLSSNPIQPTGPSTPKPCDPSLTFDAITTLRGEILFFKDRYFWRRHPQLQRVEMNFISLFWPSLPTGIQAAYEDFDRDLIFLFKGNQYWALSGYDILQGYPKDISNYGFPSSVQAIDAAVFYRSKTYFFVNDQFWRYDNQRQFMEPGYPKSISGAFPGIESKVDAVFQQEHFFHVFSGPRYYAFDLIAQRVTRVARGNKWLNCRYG
Assay: Assay for determining MMP-8 inhibition (fluorescent substrate)
Conditions: Table 2, activity group
Protocol: The typical assay for MMP-8 activity is carried out in assay buffer comprised of 50 mM Tris, pH 7.5, 150 mM NaCl, 5 mM CaCl2 and 0.05% Brij-35. Different concentrations of tested compounds are prepared in assay buffer in 50 μL aliquots. […] The time-dependent increase in fluorescence is measured at the 320 nm excitation and 390 nm emission by an automatic plate multireader at 37° C. The IC50 values are calculated from the initial reaction rates.
REPORTED ENDPOINT: IC50

These solved cases illustrate the format of a correct answer.
{"MOLECULE": "Nc1c(N2CCc3ccc(CNC(=O)c4nc5sc6c(c5c(=O)[nH]4)CCS6)cc3C2)c(=O)c1=O", "IC50": "< 250 nM"}
{"MOLECULE": "O=C1COc2ccc(CNC(=O)c3nc4sc5c(c4c(=O)[nH]3)CCS(=O)(=O)C5)cc2N1", "IC50": "< 250 nM"}
{"MOLECULE": "O=C1COc2ccc(CNC(=O)c3nc4sc5c(c4c(=O)[nH]3)CCCCC5)cc2N1", "IC50": "< 250 nM"}
{"MOLECULE": "O=C1COc2ccc(CNC(=O)c3nc4sc5c(c4c(=O)[nH]3)CCOC5)cc2N1", "IC50": "< 250 nM"}

We next turn to a different compound, shown below.
Could you share what IC50 was measured for O=C1COc2ccc(CNC(=O)c3nc4sc5c(c4c(=O)[nH]3)CCCS5(=O)=O)cc2N1 , tested on activated MMP-8 enzyme (Homo sapiens, UniProt P22894)?
250 to 20000 nM

The measurements presented in this section are drawn from patent US7749996B2.
